# Tested target: hERG potassium channel (Homo sapiens)
# Construct: expressed in transfected cells; host or cells: CHO cells stably expressing hERG
# Sequence (Q12809 whole entry): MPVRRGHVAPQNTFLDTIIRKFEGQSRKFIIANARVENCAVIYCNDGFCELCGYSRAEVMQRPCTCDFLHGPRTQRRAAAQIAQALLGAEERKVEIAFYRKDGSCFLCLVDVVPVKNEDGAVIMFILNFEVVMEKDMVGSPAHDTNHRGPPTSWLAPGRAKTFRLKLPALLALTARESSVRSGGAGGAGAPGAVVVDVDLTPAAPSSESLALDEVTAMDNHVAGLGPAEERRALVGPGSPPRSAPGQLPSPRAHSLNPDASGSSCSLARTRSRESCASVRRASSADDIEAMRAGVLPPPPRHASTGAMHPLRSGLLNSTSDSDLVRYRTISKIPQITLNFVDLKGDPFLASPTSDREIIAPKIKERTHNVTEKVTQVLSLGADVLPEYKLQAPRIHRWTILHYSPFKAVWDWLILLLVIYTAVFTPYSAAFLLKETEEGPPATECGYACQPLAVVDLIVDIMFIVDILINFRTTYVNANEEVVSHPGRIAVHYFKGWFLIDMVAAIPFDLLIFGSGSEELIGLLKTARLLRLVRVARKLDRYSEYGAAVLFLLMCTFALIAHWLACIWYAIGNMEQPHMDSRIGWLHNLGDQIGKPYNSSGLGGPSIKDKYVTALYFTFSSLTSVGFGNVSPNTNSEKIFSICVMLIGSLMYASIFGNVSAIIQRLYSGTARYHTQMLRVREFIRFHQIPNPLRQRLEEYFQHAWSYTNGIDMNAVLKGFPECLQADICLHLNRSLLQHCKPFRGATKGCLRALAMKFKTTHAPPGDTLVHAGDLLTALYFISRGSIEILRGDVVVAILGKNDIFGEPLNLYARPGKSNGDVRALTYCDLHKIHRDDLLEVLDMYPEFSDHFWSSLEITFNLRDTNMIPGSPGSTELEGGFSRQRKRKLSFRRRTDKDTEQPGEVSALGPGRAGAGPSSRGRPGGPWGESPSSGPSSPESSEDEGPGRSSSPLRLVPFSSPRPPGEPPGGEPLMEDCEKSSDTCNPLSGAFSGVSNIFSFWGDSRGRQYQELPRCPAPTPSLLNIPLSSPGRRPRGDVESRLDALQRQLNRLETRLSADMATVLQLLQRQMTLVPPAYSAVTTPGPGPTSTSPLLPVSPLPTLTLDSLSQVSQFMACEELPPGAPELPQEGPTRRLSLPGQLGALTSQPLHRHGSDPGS
# Experiment description: hERG potassium ion channel test (manual patch-clamp, CHO cells)
# Assay type: cell-based
# Condition: chinese hamster; inhibitory activity against hERG potassium channel current, CHO cells, whole cell patch-clamp; read-out: IC50
pIC50: −log10 of the molar value.
Measured property: pIC50

The reported hERG potassium channel (Homo sapiens) pIC50 of CC1(C)[C@H](NC(=O)c2ccc(N3CCC4(CC3)CC(CN3CCN5c6cc(F)c(C7CCC(=O)NC7=O)cc6CC[C@H]5C3)C4)cc2)C(C)(C)[C@H]1Oc1ccc(C#N)c2ncccc12 (some centres unmarked) is < 4.40

The reported hERG potassium channel (Homo sapiens) pIC50 of COc1cc(O[C@H]2C(C)(C)[C@H](NC(=O)c3ccc(N4CCC(CN5CCN6c7cc(F)c(C(=O)NC8CCC(=O)NC8=O)cc7CC[C@H]6C5)CC4)cc3)C2(C)C)ccc1C#N (some centres unmarked) [Trifluoroacetate of compound 3] is < 4.40

The reported hERG potassium channel (Homo sapiens) pIC50 of CC1(C)[C@H](NC(=O)c2ccc(N3CCC(CN4CCN5c6cc(F)c(C7CCC(=O)NC7=O)cc6CC[C@H]5C4)CC3)cc2)C(C)(C)[C@H]1Oc1ccc(C#N)c2ncccc12 (some centres unmarked) is < 4.40

The reported hERG potassium channel (Homo sapiens) pIC50 of CC1(C)[C@H](NC(=O)c2ccc(N3CCC(CN4CCN5c6cc(F)c(C7CCC(=O)NC7=O)cc6CC[C@@H]5C4)CC3)cc2)C(C)(C)[C@H]1Oc1ccc(C#N)c2ncccc12 (some centres unmarked) is < 4.40

The reported hERG potassium channel (Homo sapiens) pIC50 of COc1cc(O[C@H]2C(C)(C)[C@H](NC(=O)c3ccc(N4CCC(CN5CCN6c7cc(F)c(C(=O)NC8CCC(=O)NC8=O)cc7CC[C@@H]6C5)CC4)cc3)C2(C)C)ccc1C#N (some centres unmarked) [Trifluoroacetate of compound 4] is < 4.40

The reported hERG potassium channel (Homo sapiens) pIC50 of CC1(C)[C@H](NC(=O)c2ccc(N3CCC(CN4CCN5c6cc(F)c(C(=O)N[C@H]7CCC(=O)NC7=O)cc6CC[C@@H]5C4)CC3)cc2)C(C)(C)[C@H]1Oc1ccc(C#N)c2ncccc12 is < 4.40

The reported hERG potassium channel (Homo sapiens) pIC50 of CC1(C)[C@H](NC(=O)c2ccc(N3CCC(CN4CCN5c6cc(F)c(C(=O)N[C@H]7CCC(=O)NC7=O)cc6CC[C@H]5C4)CC3)cc2)C(C)(C)[C@H]1Oc1ccc(C#N)c2ncccc12 is < 4.40

The reported hERG potassium channel (Homo sapiens) pIC50 of COc1cc(O[C@H]2C(C)(C)[C@H](NC(=O)c3ccc(N4CCC(CN5CCN6c7cc(F)c(C(=O)N[C@H]8CCC(=O)NC8=O)cc7CC[C@@H]6C5)CC4)cc3)C2(C)C)ccc1C#N is < 4.40
